- subjectOfTest: human androgen receptor (Homo sapiens)
- Construct: expressed in transfected cells; host or cells: Chinese hamster ovary (CHO) cells, line CHO-AR-pMMTV-LUC 1G12-A5-CA
- Sequence (P10275 1-920): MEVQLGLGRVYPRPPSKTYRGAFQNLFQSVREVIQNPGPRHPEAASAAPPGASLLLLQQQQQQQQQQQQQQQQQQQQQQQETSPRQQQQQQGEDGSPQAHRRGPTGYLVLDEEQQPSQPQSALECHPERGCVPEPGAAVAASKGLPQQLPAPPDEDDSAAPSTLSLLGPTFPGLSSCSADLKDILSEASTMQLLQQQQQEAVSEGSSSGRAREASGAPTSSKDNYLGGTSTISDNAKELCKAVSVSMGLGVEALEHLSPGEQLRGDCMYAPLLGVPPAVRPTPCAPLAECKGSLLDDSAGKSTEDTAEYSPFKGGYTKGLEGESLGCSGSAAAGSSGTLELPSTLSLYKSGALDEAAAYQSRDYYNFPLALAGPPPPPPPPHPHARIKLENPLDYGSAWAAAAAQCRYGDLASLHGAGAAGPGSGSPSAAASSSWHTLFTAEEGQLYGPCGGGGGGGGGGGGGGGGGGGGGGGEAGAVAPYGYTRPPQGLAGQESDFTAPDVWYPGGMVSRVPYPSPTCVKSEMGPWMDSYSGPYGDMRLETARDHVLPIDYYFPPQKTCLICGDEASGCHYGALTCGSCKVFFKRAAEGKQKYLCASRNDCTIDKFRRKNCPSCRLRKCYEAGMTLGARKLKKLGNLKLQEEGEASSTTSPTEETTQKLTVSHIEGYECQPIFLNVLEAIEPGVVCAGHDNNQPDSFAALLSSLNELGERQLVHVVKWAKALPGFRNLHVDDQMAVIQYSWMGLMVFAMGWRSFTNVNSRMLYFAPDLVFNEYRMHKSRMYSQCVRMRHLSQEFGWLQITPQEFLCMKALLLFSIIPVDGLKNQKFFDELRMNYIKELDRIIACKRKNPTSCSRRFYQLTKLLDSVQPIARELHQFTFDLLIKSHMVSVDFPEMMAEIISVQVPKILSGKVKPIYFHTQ
- experimentalProtocol: Androgenic activity (potency) in vitro bioassay, CHO-AR-pMMTV-LUC 1G12-A5-CA cells, luciferase reporter
- Type: cell-based
- conditionSummary: CHO cells stably transfected with human androgen receptor and MMTV-luciferase reporter; in the presence of 0.1 μmol/l onapristone; potencies expressed as percentage of DHT activity (maximal efficacy with 100 nmol/l DHT set as 100%)
// class assignment uses Potency (%) with these ranges: lower band (below 3%), central band (3% to below 9%), upper band (9% or more)

>>> categorylabel("CNc1ccc2c(Sc3ccccc3[N+](=O)[O-])cn(Cc3ccccc3F)c2c1")
"lower band"
>>> categorylabel("CNc1ccc2c(Sc3ccccc3[N+](=O)[O-])cn(Cc3cscn3)c2c1")
"central band"
>>> categorylabel("CCNc1ccc2c(Sc3ccccc3[N+](=O)[O-])cn(Cc3cc(F)cc(F)c3)c2c1 [Example 19a]")
"lower band"
>>> categorylabel("O=[N+]([O-])c1ccccc1Sc1cn(Cc2cc(F)cc(F)c2)c2cc(NCCO)ccc12 [Example 21b]")
"central band"
>>> categorylabel("CNc1ccc2c(Sc3ccccc3[N+](=O)[O-])cn(Cc3ccco3)c2c1")
"upper band"
>>> categorylabel("CNc1ccc2c(Sc3ncccc3[N+](=O)[O-])cn(Cc3cc(F)cc(F)c3)c2c1")
"central band"
>>> categorylabel("N#CCNc1ccc2c(Sc3ccccc3[N+](=O)[O-])cn(Cc3cccnc3)c2c1 [Example 21j]")
"lower band"
>>> categorylabel("CNc1ccc2c(Sc3ccccc3[N+](=O)[O-])cn(Cc3ccccn3)c2c1")
"upper band"
>>> categorylabel("CNc1ccc2c(Sc3ccccc3C(C)=O)cn(Cc3cc(F)cc(F)c3)c2c1")
"lower band"
>>> categorylabel("CNc1ccc2c(Sc3ccccc3[N+](=O)[O-])cn(Cc3cc(F)cc(F)c3)c2c1")
"upper band"
>>> categorylabel("N#CCNc1ccc2c(Sc3ccccc3[N+](=O)[O-])cn(Cc3ccccn3)c2c1 [Example 21d]")
"central band"

* * *

- subjectOfTest: human androgen receptor (Homo sapiens, UniProt P10275)
- Construct: expressed in transfected cells; host or cells: Chinese hamster ovary (CHO) cells, line CHO-AR-pMMTV-LUC 1G12-A5-CA
- experimentalProtocol: Androgenic activity (potency) in vitro bioassay, CHO-AR-pMMTV-LUC 1G12-A5-CA cells, luciferase reporter
- Assay type: cell-based
- conditionSummary: CHO cells stably transfected with human androgen receptor and MMTV-luciferase reporter; in the presence of 0.1 μmol/l onapristone; potencies expressed as percentage of DHT activity (maximal efficacy with 100 nmol/l DHT set as 100%)
Entries and their Potency (%) values follow.
outcomeMeasure: Potency (%)

>>> measuredresult("CNc1ccc2c(Sc3ccccc3[N+](=O)[O-])cn(Cc3cocn3)c2c1")
14.8
>>> measuredresult("CN(C)c1ccc2c(Sc3ccccc3[N+](=O)[O-])cn(Cc3ccccn3)c2c1 [Example 19c]")
1.2
>>> measuredresult("CN(C)c1ccc2c(Sc3ccccc3[N+](=O)[O-])cn(Cc3cc(F)cc(F)c3)c2c1")
2.7
>>> measuredresult("CNc1ccc2c([S+]([O-])c3ccccc3[N+](=O)[O-])cn(Cc3ccc(F)cc3)c2c1 (centres unmarked)")
4.3
>>> measuredresult("COCCNc1ccc2c(Sc3ccccc3[N+](=O)[O-])cn(Cc3ccccn3)c2c1 [Example 21e]")
8.3
>>> measuredresult("CNc1ccc2c(Sc3ccccc3[N+](=O)[O-])cn(Cc3cccc(Cl)c3)c2c1")
1.3
>>> measuredresult("COCCNc1ccc2c(Sc3ccccc3[N+](=O)[O-])cn(Cc3cccnc3)c2c1 [Example 21f]")
20.9
>>> measuredresult("N#CCNc1ccc2c(Sc3ccccc3[N+](=O)[O-])cn(Cc3cc(F)cc(F)c3)c2c1")
40.2

* * *

- subjectOfTest: human androgen receptor (Homo sapiens, UniProt P10275)
- Construct: expressed in transfected cells; host or cells: Chinese hamster ovary (CHO) cells, line CHO-AR-pMMTV-LUC 1G12-A5-CA
- experimentalProtocol: Androgenic activity (potency) in vitro bioassay, CHO-AR-pMMTV-LUC 1G12-A5-CA cells, luciferase reporter
- Format: cell-based
- conditionSummary: CHO cells stably transfected with human androgen receptor and MMTV-luciferase reporter; in the presence of 0.1 μmol/l onapristone; potencies expressed as percentage of DHT activity (maximal efficacy with 100 nmol/l DHT set as 100%)
// class assignment uses Potency (%) with these ranges: range 1 (below 4%), range 2 (4% to below 10%), range 3 (10% or more)

>>> categorylabel("COCCNc1ccc2c(Sc3ccccc3[N+](=O)[O-])cn(Cc3cc(F)cc(F)c3)c2c1 [Example 21c]")
"range 3"
>>> categorylabel("CNc1ccc2c(Sc3ccccc3[N+](=O)[O-])cn(Cc3cccc(C(F)(F)F)c3)c2c1")
"range 1"
>>> categorylabel("CNc1ccc2c(Sc3ccccc3CO)cn(Cc3cc(F)cc(F)c3)c2c1")
"range 2"
>>> categorylabel("C#CCNc1ccc2c(Sc3ccccc3[N+](=O)[O-])cn(Cc3cc(F)cc(F)c3)c2c1 [Example 22b]")
"range 3"
>>> categorylabel("CNc1ccc2c(Sc3ccccc3[N+](=O)[O-])cn(Cc3cccc(F)c3)c2c1")
"range 3"
>>> categorylabel("CCNc1ccc2c(Sc3ccccc3[N+](=O)[O-])cn(Cc3ccccn3)c2c1 [Example 19d]")
"range 2"
>>> categorylabel("CNc1ccc2c(Sc3ccccc3[N+](=O)[O-])cn(Cc3ccccc3)c2c1")
"range 2"
>>> categorylabel("CNc1ccc2c(Sc3ccccc3[N+](=O)[O-])cn(Cc3ccoc3)c2c1")
"range 3"
>>> categorylabel("C=CCNc1ccc2c(Sc3ccccc3[N+](=O)[O-])cn(Cc3cc(F)cc(F)c3)c2c1 [Example 19b]")
"range 1"
